# Assay: chemical genetic growth profiling, strain panel (AID 1159580);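 note: tested at 20 µM; growth read once vehicle control cultures reached saturation at 30 °C; 1 = growth at the plate median or of vehicle wells; lower values mean less growth of the strain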
# Condition: S. cerevisiae deletion strains, growth OD, locus YCL069W, strain vba3, hits give low values
Screen size: about 5,500 compounds; about 2,000 (36%) were called active. Not shown: some 18% with an inconclusive outcome. This is one part of the list.
Test readout: normalized growth
One number for each entry.

Reference set (5 entries):
CC(C)(C)C(=O)C(Oc1ccc(Cl)cc1)n1cncn1 (configuration not stated)    0.106
CCCCC1C(=O)N(c2ccccc2)N(c2ccccc2)C1=O    0.999
NCCc1ccc(O)c(O)c1    0.981
N[C@@H]1CONC1=O    0.98
CC(=O)N(O)CCCCCNC(=O)CCC(=O)N(O)CCCCCNC(=O)CCC(=O)N(O)CCCCCN    0.994

State recorded normalized growth for all listed compounds.
1. CC(C)(Oc1ccc(Cl)cc1)C(=O)O
2. NCC(=O)CCC(=O)O

[1.01, 0.989]
